Sourced from PubChem BioAssay (NCI)

System: LOX IMVI melanoma
assay.method.text: NCI-60 one-dose screen, 48 h (100 = growth as untreated, 0 = no growth, -100 = all killed)
condition.parameters: 10 µM unless noted
The panel holds about 83,000 compounds, 20% with a hit somewhere; the sample as a whole holds those more often.

- smiles.text: "NC(=S)N/N=C\\c1nccc2c(C(F)(F)C(F)(F)C(F)(F)F)cccc12"
  growth [%]: 4.13
- smiles.text: "S=C(NCCNC(=S)[S][Sn]([c]1ccccc1)([c]1ccccc1)[c]1ccccc1)[S][Sn]([c]1ccccc1)([c]1ccccc1)[c]1ccccc1"
  growth [%]: -86.5
- smiles.text: "CCOC(=O)c1c(C)[nH]c(CO)c1C"
  growth [%]: 101
